# System: A549/ATCC NSCLC
# assayMethodText: NCI-60 one-dose screen, 48 h (100 = growth as untreated, 0 = no growth, -100 = all killed)
# measurementParameters: 10 µM unless noted
The panel holds about 83,000 compounds, 20% with a hit somewhere; the sample as a whole holds those more often.
reportedEndpoint: growth (%)

• CC1=N/C(=C\c2cccc(Br)c2)C(=O)O1 = 89.3
• Nc1cc2ccncc2c2ccccc12 = 89.4
• O=C(CN1CCN(c2cc3c(cc2F)c(=O)c(C(=O)N/N=C/c2ccccc2)cn3C2CC2)CC1)N/N=C\c1ccccc1 = 69.9
• COCCOc1ccc(-c2nc3ccc(-c4nc5ccc(N6CCN(C)CC6)cc5[nH]4)cc3[nH]2)cc1 = 67.9
• CC1CN(Cc2ccco2)C(=S)N(c2ccccc2)C1=O (stereo not drawn) = 110
• CC(C)C1=C[C@@]23CC[C@@H]4[C@](C)(CCC[C@@]4(C)C(=O)OCC#CCN4CCCC4)[C@H]2C[C@@H]1[C@H]1C(=O)OC(=O)[C@H]13 = 98.4
• COc1cc(-c2nc3ccccc3s2)ccc1NC(=O)COc1ccc(Cl)cc1 = 49.2
• CSc1nc(NCCO)c(C#N)c(-c2cccc(N)c2)n1 = 100
• CC(=O)CC(C)(C)c1ccc(Cl)cc1 = 103
• COc1ccc(/C=C2\N=C3SC=C(N)N3C2=O)cc1 = 32.8
• CN1C2CCC1/C(=C\c1ccc(Cl)cc1)C1=C2[C@@H](c2ccc(Cl)cc2)C(C#N)=C(N)O1 (stereo partly drawn) = 83.1
• C=C1CCC2C3(C)COC(C)(C)OC3CCC2(C)C1C/C=C1/C(=O)OCC1OC(C)=O (stereo not drawn) = 61.7
• NC(=S)N/N=C/c1cc(-c2cccc(N)c2)ccn1 = 21.7
